study_target: Lysine-specific demethylase 4A (Homo sapiens)
assay_method_text: qHTS Assay for Inhibitors of JMJD2A-Tudor Domain; also: nearly all actives have a fitted effect of over 50% in size
stated_conditions: AlphaScreen JMJD2A-Tudor / H3K4me3 peptide binding; series mostly up to 114 µM
Hit rate of the full screen: of about 390,000 compounds, about 17,000 (4.4%) were called active. Inconclusive results (about 8%) are left out. Calls follow the shape of the dose curve; as a rule, active = well fitted inhibition curve with a large enough effect; inconclusive = small, poorly fitted or top-dose-only effect; inactive = no such curve, though single readings can be large or run the other way. The sample holds actives, similar compounds and a random draw of the others, so the mix is not that of the screen.
Permitted responses: active, inactive

Solved entries (count: 10):
1. O=C(Nc1ccc2nc(SCC(=O)N3CCCc4ccccc43)sc2c1)c1ccc(F)cc1    inactive
2. COc1ccc(-c2nn(-c3ccccc3)cc2/C=C2/SC(=S)N(CCCC(=O)O)C2=O)c(C)c1    active
3. O=C(NCc1ccc(F)cc1)c1ccc(Cn2c(SCc3ccc(F)cc3)nc3cccnc32)cc1    inactive
4. Brc1ccccc1/C=N/Nc1nc2ccccc2o1    inactive
5. O=C(CN1CCN(Cc2ccc(Cl)cc2)C1=O)NCc1ccc(F)cc1    inactive
6. CCOc1ccc(/C=C(/C#N)c2nnc(N3CCOCC3)n2-c2ccccc2)cc1OC    inactive
7. COc1ccc(-c2nn(-c3ccccc3)cc2CN2CCCO2)c(F)c1    inactive
8. COC(=O)c1ccc(C(NC(=O)OCc2ccccc2)/C(C)=C/[C@@H](C)C(=O)NCc2ccc(OC)c(OC)c2)cc1 (stereo partly specified)    inactive
9. COc1cc(N2CCCC2)c(OC)cc1/C=C(/C#N)c1cccc(Br)c1    active
10. CCOc1ccccc1/C=N/NC(=O)CNC(=O)COc1ccccc1    inactive

Would you mind telling me which call this test gave `Cc1cccc(C(=O)NCCc2nc3ccccc3n2Cc2ccccc2Cl)c1` ? inactive

Please state the recorded outcome for this molecule: O=[N+]([O-])c1ccc(N/N=C2/CCCCC2c2ccccn2)c([N+](=O)[O-])c1 (stereo unspecified) active

Outcome logged for COC(=O)CC1Oc2ccccc2-n2cc(-c3ccccc3)nc21 (stereo unspecified) in this assay: inactive

Called result for CCOC(=O)C1CCCN(C(=O)c2ccc(-n3ccc4ccccc43)s2)C1 (stereo unspecified) inactive

State the result this test recorded for `COc1ccc(/C=C/c2noc(-c3ccccc3O)n2)cc1OC` . inactive

Look up the recorded call for `CCOC(=O)c1[nH]c(C)c(CCC(=O)N2CCN(c3ccccc3)CC2)c1C` in this test. inactive

Assay result, entry `S=C(NCCc1ccccc1)NCc1ccccc1Cl` — outcome? inactive

Test call, this molecule: `Nc1cc(N)nc(SCc2ccc(Cl)cc2)n1` inactive

Please let me know the test result on file for `O=S(=O)(NC1CC1)c1ccc2c3c(cccc13)CC2` . active

Recorded call for O=C(NC1(C(F)(F)F)N=C(c2ccccc2)N(C2CCCCC2)C1=O)c1ccccc1F (stereo unspecified) ? inactive

Given `Fc1ccc(-c2ccc(CNCc3ccccn3)o2)cc1Cl` , state the outcome it received in this test. active

Write down the call the test reported for this molecule. Item: CC1CCCN(CC(=O)Nc2cc(Cl)ccc2Oc2ccccc2)C1 (stereo unspecified) inactive

Record lookup: outcome of this test for `O=C1/C(=C/c2coc3ccc(O)cc3c2=O)SC(=S)N1c1ccccc1` ? inactive

What is the recorded call for this molecule in the test? `Cc1cc(C)cc(NC(=O)c2cnc3sc(N4CCCC4)nn3c2=O)c1` inactive

// param item: `CCCCCn1c(=O)[nH]c2cc(C(=O)Nc3ccc(F)cc3)ccc2c1=O` ; yields the recorded call inactive
